- Measurement description: yeast display, Sf9 membrane polyspecificity reagent, FACS + sequencing; frameworks hold sequencing errors

{"Monomer sequence": "QGQLVESGGGLVQAGGSLRITCAASGITFPYNAMGWYRQAPGTERELVAAITRSGASTYYADSVKGRFTISRDNSKNTVYVQMNSLKPEDTAVYYCAAKVIGRPRPYYYWGQGTQVTVSS", "polyreactivity (PSR sort gate)": "high polyreactivity"}
{"Monomer sequence": "QVQLVESGGGLVQAGGSLRLSCAASGSIFSYYAMGWYRQAPGKERELVAAISWSGGRTYYADSVKGRFTISRDNAKNTVYLQMNSLKPEDTAVYYCNVDVYVVPHYDYWGQGTQVTVSS", "polyreactivity (PSR sort gate)": "high polyreactivity"}
{"Monomer sequence": "QVQLVESGGGLVQAGGSLRLSCAASGSTFVSYAMGWYRQAPGKEREMVASISSGDSTYADSVKGRFTISRDNAKNTVYLQMNSLKREDTAVYYCNVGNEGSYGFPVTYDYWGQGSQVTVSS", "polyreactivity (PSR sort gate)": "low polyreactivity"}
{"Monomer sequence": "QVQLVESGGGLVQAGGSLRLSCAASGSTFYPNAMGWYRQAPGKERELVAAISRGTRTKYADSVKGRFTISRDNAMNTVYLQMNSLKPEDTAVYYCAADTGTGLDWGQGTQVTVSS", "polyreactivity (PSR sort gate)": "high polyreactivity"}
{"Monomer sequence": "QVQLVESGGGLVQAGGSLRLSCAASGRTFVVYAMGWYRQAPGKERELVAVIRVIGGSTNYADSVKGRFTISRDNAKNTVYLQMNSLKPEDTAVYYCAADGVVVVAADMYYWGQGTQVTVSS", "polyreactivity (PSR sort gate)": "low polyreactivity"}
{"Monomer sequence": "QVQLVESGGGLVQAGGSLRLSCAASGFTFAPNAMGWYRQAHGKERELVAAISSASSTYYADSVKGRFTISRDNAKNTVYLQMNSLKPEDTAVYYCAAREGWGFYYWGQGTQGTVSS", "polyreactivity (PSR sort gate)": "high polyreactivity"}
{"Monomer sequence": "QVHLVESGGGLVQAGGSLRLSCAPSGSTFIRNAILWYRQAPGKDRELVAPISRSGSSTYYADSVKGRFTISRDNAKNTVYLQMNSLKPEDTAVYYCAAETDSRKARVLYDSWGQGTQVTVSS", "polyreactivity (PSR sort gate)": "high polyreactivity"}
{"Monomer sequence": "QVQLVESGGGLVQAGGRLRLSCAASGSIFSRYAMGWYRQAPGKERELVAAITSRGSGTNYADSVKGRFTISRDNAKNTVYLQMNSLKPEDTAVYYCNAARLPRLGWPTPYLYDYWGQGTQVTVSS", "polyreactivity (PSR sort gate)": "high polyreactivity"}
{"Monomer sequence": "QVQLVESGGGLVQAGGSLRLSCAASGFIFVYYAMGWYRQAPGKERELVAAISSRGGSTYYADSVKRRFTISRDNAKNTVYLQMNSLKPEDTAVYYCAARPSSRRYGTIMDYWGQGTQVTVSS", "polyreactivity (PSR sort gate)": "high polyreactivity"}
{"Monomer sequence": "QVQLVESGGGLVQAGGSLRLSCAASGSTFTVNGMGWYRQAPGKERELVAAITWSGGSTYYADSVKGRFTISRDTAKNTVYLQMNSLKPEDTAVYYCAADENLYITGYDYWGQGTQVNVSS", "polyreactivity (PSR sort gate)": "low polyreactivity"}
{"Monomer sequence": "QVQLVESGGGLVQAGGSLRLSCAASGFTFGYYAMGWYRQAPRKERELVAAISSSSGRTHYADSVKGRFTISRDNAKNTVYLQMNSLKPEDTAVYYCAAEFYYLYYYWGQGTQVTVSS", "polyreactivity (PSR sort gate)": "high polyreactivity"}
{"Monomer sequence": "QVQLVESGGGLVQAGGSLRLSCAASGRIIYAYAMGWYRQAPGKERELVAAITIGGNTNYADSVKGRFTISRDNAKNTVYLQMNSLKPEDTAVYYCNARNYYYPWRGYHVVGSNDLGYWGQGTQVTVSS", "polyreactivity (PSR sort gate)": "low polyreactivity"}
{"Monomer sequence": "QVQLVESGGGLVQAGGSLRLSCAASGLIFRGYAMGWYRQAPGKERELVAVISSSGGITRYADSVKGRFTISRDNAKNTVYLQMNSLKPEDTAVSYCATDRAERTGYTRYVKTYNYWGQGTQVTVSS", "polyreactivity (PSR sort gate)": "low polyreactivity"}
{"Monomer sequence": "QDQLVESGGGLVQAGGSLRLSCAASGSISSTNAMGWYRQAPGKERELVATISWIGGSTYADSVKGRFTISRDNAKNTVYLQMNSLKPEDTAVYYCNRDWIFTKDYDYWGQGTQVTVSS", "polyreactivity (PSR sort gate)": "low polyreactivity"}
